Overview of recorded Inhibition for various compounds
- Tested on: Cryptococcus neoformans
- condition context: Concentration 32 ug.mL-1; ASSAY_TEST Inhibition of Fungal Growth; detection method Resazurin; Absorption (OD600-OD570); plate type 384well; NBS; CORNING #3640
- Description: Antifungal activity against Cryptococcus neoformans H99 ATCC 208821 (CO-ADD:FG_002); MIC in YNB media using NBS plates, by Resazurin OD(600-570)
Potency and affinity values are given separately.

{"columns": ["compound", "Inhibition"],
 "data": [
  ["CC(C)CCn1c(=O)c2ccc(C(=O)NC3CCCC3)cc2n2c(=S)[nH]nc12", "-11.12%"],
  ["COc1ccc(NC(=O)Cn2nc3c(N4CC(C)CC(C)C4)nccn3c2=O)c(OC)c1 (stereo not given)", "-7.52%"],
  ["Cc1ccc(NC(=O)Cn2nc3c(N4CCOCC4)nccn3c2=O)cc1Cl", "-5.46%"],
  ["COc1ccccc1CNC(=O)Cn1nc2c(N3CCSCC3)nccn2c1=O", "-6.25%"],
  ["COc1ccc(NC(=O)Cn2nc3c(Oc4ccccc4)nccn3c2=O)cc1", "-6.99%"],
  ["O=C(CSc1nnc2c(=O)n(-c3ccc(Br)cc3)ccn12)Nc1ccc(F)cc1", "-11.61%"],
  ["CCc1nnc2c(S(=O)(=O)N(Cc3ccc(C)cc3)c3ccc(C(C)C)cc3)cccn12", "-8.19%"],
  ["COc1cccc(N(Cc2ccc(F)cc2)S(=O)(=O)c2ccc3nncn3c2)c1", "-15.36%"],
  ["Cc1cc(C)c(NC(=O)Cn2nc3c(N4CCCC(C)C4)nccn3c2=O)c(C)c1 (stereo not given)", "-2.74%"],
  ["COc1ccc(C(=O)CSc2nnc3c(=O)n(-c4ccc(F)cc4)ccn23)cc1", "-10%"],
  ["COc1ccc(-c2nc(CSc3nc4ccccc4n4c(C(C)C)nnc34)c(C)o2)cc1", "-16.11%"],
  ["CCOc1ccccc1NC(=O)Cn1nc2c3c4c(sc3ncn2c1=O)CCCC4", "-12.75%"],
  ["Cc1ccc(NC(=O)Cn2nc3c4cc(-c5ccc(Cl)cc5)nn4ccn3c2=O)cc1C", "-22.86%"],
  ["COc1cccc(-n2ccn3c(SCC(=O)Nc4cc(Cl)ccc4OC)nnc3c2=O)c1", "-11.15%"],
  ["Cc1ccc(Sc2nccn3c(=O)n(CC(=O)N4CCN(c5ccccc5)CC4)nc23)c(C)c1", "-7.85%"],
  ["Cc1nnc2ccc(S(=O)(=O)N(Cc3cccc(F)c3)c3cccc(Cl)c3)cn12", "-11.05%"],
  ["Cc1cc(C)c(NC(=O)Cn2nc3ccc(SC4CCCCC4)nn3c2=O)c(C)c1", "-14.71%"],
  ["CC(C)c1nnc2c(=O)n(CC(=O)Nc3ccc(F)cc3)c3ccccc3n12", "-21.16%"],
  ["COc1ccc(N(Cc2ccccc2F)S(=O)(=O)c2ccc3nnc(C)n3c2)cc1", "-2.71%"],
  ["COc1cccc(NC(=O)Cn2nc3c(Oc4ccccc4)nccn3c2=O)c1", "-2.51%"],
  ["O=C(Cn1nc2ccc(-c3ccccc3)nn2c1=O)Nc1ccc(F)cc1", "-10.36%"],
  ["COc1ccc(N(Cc2cccc(C)c2)S(=O)(=O)c2ccc3nncn3c2)cc1", "-8.71%"],
  ["COc1ccc(C)cc1NC(=O)Cn1nc2ccc(SC(C)(C)C)nn2c1=O", "-12.69%"],
  ["COc1ccc(NC(=O)CSc2nnc3c(=O)n(-c4ccccc4)ccn23)cc1OC", "-16.1%"],
  ["Cc1cccc(NC(=O)c2ccc3nnc(SCC(=O)Nc4ccc(Br)cc4)n3c2)c1", "-6.93%"],
  ["CCOc1ccc(-n2ccn3c(SCC(=O)Nc4cc(F)ccc4F)nnc3c2=O)cc1", "-1.21%"],
  ["CCOC(=O)c1ccc(NC(=O)Cn2nc3c(SCc4ccc(Cl)cc4)nccn3c2=O)cc1", "-18.54%"],
  ["O=S(=O)(c1cccn2cnnc12)N(Cc1ccc(F)cc1)c1ccc(F)cc1", "-6.17%"],
  ["COc1ccccc1-n1ccn2c(SCC(=O)Nc3ccc(C)cc3C)nnc2c1=O", "-10.8%"],
  ["O=c1c2sccc2n2c(=O)n(Cc3cccc(C(F)(F)F)c3)nc2n1Cc1cccs1", "-33.79%"],
  ["O=c1c2nnc(SCc3ccccc3F)n2ccn1-c1ccc(Br)cc1", "-9.71%"],
  ["Cc1c(Cl)cccc1-n1ccn2c(=O)n(Cc3cccc(F)c3)nc2c1=O", "-17.54%"],
  ["CCCN(C)c1nccn2c(=O)n(CC(=O)Nc3cccc(C(C)=O)c3)nc12", "-8.37%"],
  ["COc1ccc(-c2cc3c4nnc(SCC(=O)Nc5ccc(OC)c(Cl)c5)n4ccn3n2)cc1", "-21.63%"],
  ["COc1ccc(CNC(=O)CSc2nnc3c4cc(-c5ccc(OC)cc5)nn4ccn23)cc1", "-6.67%"],
  ["COc1ccc(-c2cc3c4nnc(CCC(=O)NCc5cccs5)n4ccn3n2)cc1", "-11.02%"],
  ["O=S(=O)(c1ccc2nncn2c1)N(Cc1cc(F)cc(F)c1)c1cccc(F)c1", "-8.32%"],
  ["COc1ccc(N2CCN(C(=O)Cn3nc4c(Oc5ccc(C)cc5)nccn4c3=O)CC2)cc1", "-9.68%"],
  ["Cc1ccc(Oc2nc3ccccc3n3c(=O)n(CC(=O)Nc4ccccc4C(F)(F)F)nc23)cc1", "-22.18%"],
  ["CC(C)c1nnc2c(SCC(=O)Nc3cccc(Cl)c3)nc3ccccc3n12", "-14.08%"]
]}
